biological target: Microphthalmia-associated transcription factor (Homo sapiens); assay: MITF inhibitors, primary screen, biochemical, AlphaScreen, human (AID 1259374); details: AlphaScreen MITF homodimerization, bead proximity signal; at 2.6 µM
The campaign covered roughly 650,000 compounds. About 5,900 (0.91%) were called active. Cut-off read from the data, not from the text of the source: active = inhibition above about 50%; inactive = the rest. The list comes from a sample in which actives are over-represented; it also holds close analogues and randomly drawn compounds.
Outcomes: t (active), f (inactive)

In [3]: df
Out[3]:
                                    molecule  cat
 0  CSc1ccccc1NC(=O)CN(C)CC(=O)Nc1ccc(C#N)c(Cl)c1    t
 1  CCOC(=O)C1C2NC(=S)N(c3ccc(Cl)cc3)C1(C)Oc1ccccc12 (stereo unspecified)    f
 2  CSCCC(NC(=O)c1ccco1)C(=O)OCC(=O)Nc1ccc(C#N)c(Cl)c1 (stereo unspecified)    f
 3         COc1ccc(CN2CCN(Cc3ccccc3)CC2)cc1C    t
 4   COc1ccc(CN2CCN(c3ccc(C(C)=O)cc3)CC2)cc1    f
 5        COc1cccc(CN2CCN(Cc3ccccc3OC)CC2)c1    f
 6         COc1cccc(CN2CCN(Cc3ccccc3F)CC2)c1    t
 7       COc1ccccc1CN1CCN(C(=O)Cc2ccccc2)CC1    t
 8      COc1ccc(CN2CCN(c3ccccc3F)CC2)c(OC)c1    f
 9          COc1ccccc1CN1CCN(c2ccc(F)cc2)CC1    f
10       COc1ccc(CN2CCN(c3ccccc3F)CC2)c(O)c1    f
